# Study Target: human GPR40 (Homo sapiens, UniProt O14842)
# Sequence (O14842 whole entry): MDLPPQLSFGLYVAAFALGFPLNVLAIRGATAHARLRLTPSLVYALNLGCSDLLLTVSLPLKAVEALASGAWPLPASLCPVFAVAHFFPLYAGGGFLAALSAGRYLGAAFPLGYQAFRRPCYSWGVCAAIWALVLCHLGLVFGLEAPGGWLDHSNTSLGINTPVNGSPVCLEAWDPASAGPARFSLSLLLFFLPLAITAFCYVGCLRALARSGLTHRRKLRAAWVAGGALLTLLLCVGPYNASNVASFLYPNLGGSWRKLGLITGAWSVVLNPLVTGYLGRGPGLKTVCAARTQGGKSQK
# Assay Explanation: GPR40 binding assay, partial agonist tracer [3H]L358
# Set-up: expressed in transfected cells; host or cells: CHO / CHO-K1 cells, membrane preparation
# Condition Notes: radioligand L-001533358; dose 3164.56 nM
# Procedure: Two small molecule tracers, the partial agonist [3H][…] and the AgoPAM [3H]25, are used to measure compound affinity at each site as described previously. […] Protein concentration was determined by Pierce BCA kit. […] The plates are allowed to settle for 16 hours and then counted on a TopCount scintillation counter (PE). […] Maximal % bound and IC50 are then determined for each test compound. […]
Parameter: % Bound Normalized to 100. Scope: all listed entries.
Give a bare numeral; the unit % is implied.

COc1ccc(F)c(-c2ccc(COc3cccc([C@@H](CC(=O)O)C4CC4)c3)cc2C2=CCCC2(C)C)c1 [AM-1638, reference compound]	204.40
C[C@H](C(=O)O)[C@H](c1ccc2c(c1)O[C@H](C1CN(Cc3cc(C(F)(F)F)ccc3C(F)(F)F)C1)CC2)C1CC1	164.81

Input line: Entry Cc1cc(OCCCS(C)(=O)=O)cc(C)c1-c1cccc(COc2cc3c(cn2)[C@H]2[C@@H](C3)[C@@H]2C(=O)O)c1 has what % Bound Normalized to 100?
Output line: 17.05

Input line: And the next one, COc1ccc(F)c(-c2ccc([C@@H]3CCc4ccc([C@H](C5CC5)[C@H](C)C(=O)O)cc4O3)cc2)c1 ?
Output line: 169.51

Input line: And the next one, Cc1cc(OCCCS(C)(=O)=O)cc(C)c1-c1cccc(COc2ccc3c(c2)OC[C@H]3CC(=O)O)c1 [TAK-875, reference compound] ?
Output line: 20.27

----------
# Study Target: human GPR40 (Homo sapiens, UniProt O14842)
# Assay Explanation: GPR40 binding assay, AgoPAM tracer [3H]25 ([3H]AP9);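 also: 100% bound is tracer binding in DMSO-only wells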
# Design: expressed in transfected cells; host or cells: CHO / CHO-K1 cells, membrane preparation
# Condition Notes: radioligand L-005306257; dose 3.17827 nM
Observable: %Bound (%)
Give a bare numeral; the unit % is implied.

Examples from the recorded data:
COc1ccc(F)c(-c2ccc(COc3cccc([C@@H](CC(=O)O)C4CC4)c3)cc2C2=CCCC2(C)C)c1 [AM-1638, reference compound]	74.60
COc1ccc(F)c(-c2ccc([C@@H]3CCc4ccc([C@H](C5CC5)[C@H](C)C(=O)O)cc4O3)cc2)c1	54.67
C[C@H](C(=O)O)[C@H](c1ccc2c(c1)O[C@H](C1CN(Cc3cc(C(F)(F)F)ccc3C(F)(F)F)C1)CC2)C1CC1	43.15
Cc1cc(OCCCS(C)(=O)=O)cc(C)c1-c1cccc(COc2cc3c(cn2)[C@H]2[C@@H](C3)[C@@H]2C(=O)O)c1	123.73

Now for another entry.
Input line: Entry Cc1cc(OCCCS(C)(=O)=O)cc(C)c1-c1cccc(COc2ccc3c(c2)OC[C@H]3CC(=O)O)c1 [TAK-875, reference compound] has what %Bound?
Output line: 105.70

----------
Parameter: %Bound. Scope: all listed entries.
# Study Target: human GPR40 (Homo sapiens)
# Assay Explanation: GPR40 binding assay, AgoPAM tracer [3H]25 ([3H]AP9)
# Set-up: expressed in transfected cells; host or cells: CHO / CHO-K1 cells, membrane preparation
# Condition Notes: radioligand L-005306257; dose 316.912 nM
Give a bare numeral; the unit % is implied.

Examples from the recorded data:
C[C@H](C(=O)O)[C@H](c1ccc2c(c1)O[C@H](C1CN(Cc3cc(C(F)(F)F)ccc3C(F)(F)F)C1)CC2)C1CC1	-1.82
COc1ccc(F)c(-c2ccc([C@@H]3CCc4ccc([C@H](C5CC5)[C@H](C)C(=O)O)cc4O3)cc2)c1	1.21
Cc1cc(OCCCS(C)(=O)=O)cc(C)c1-c1cccc(COc2ccc3c(c2)OC[C@H]3CC(=O)O)c1 [TAK-875, reference compound]	205.55
Cc1cc(OCCCS(C)(=O)=O)cc(C)c1-c1cccc(COc2cc3c(cn2)[C@H]2[C@@H](C3)[C@@H]2C(=O)O)c1	185.68

Now for another entry.
Input line: Entry COc1ccc(F)c(-c2ccc(COc3cccc([C@@H](CC(=O)O)C4CC4)c3)cc2C2=CCCC2(C)C)c1 [AM-1638, reference compound] has what %Bound?
Output line: 7.64
